# TEST_TARGET: von Hippel-Lindau disease tumor suppressor/Androgen receptor (Homo sapiens, UniProt P10275+P40337)
# Sequence (P10275 whole entry, looked up): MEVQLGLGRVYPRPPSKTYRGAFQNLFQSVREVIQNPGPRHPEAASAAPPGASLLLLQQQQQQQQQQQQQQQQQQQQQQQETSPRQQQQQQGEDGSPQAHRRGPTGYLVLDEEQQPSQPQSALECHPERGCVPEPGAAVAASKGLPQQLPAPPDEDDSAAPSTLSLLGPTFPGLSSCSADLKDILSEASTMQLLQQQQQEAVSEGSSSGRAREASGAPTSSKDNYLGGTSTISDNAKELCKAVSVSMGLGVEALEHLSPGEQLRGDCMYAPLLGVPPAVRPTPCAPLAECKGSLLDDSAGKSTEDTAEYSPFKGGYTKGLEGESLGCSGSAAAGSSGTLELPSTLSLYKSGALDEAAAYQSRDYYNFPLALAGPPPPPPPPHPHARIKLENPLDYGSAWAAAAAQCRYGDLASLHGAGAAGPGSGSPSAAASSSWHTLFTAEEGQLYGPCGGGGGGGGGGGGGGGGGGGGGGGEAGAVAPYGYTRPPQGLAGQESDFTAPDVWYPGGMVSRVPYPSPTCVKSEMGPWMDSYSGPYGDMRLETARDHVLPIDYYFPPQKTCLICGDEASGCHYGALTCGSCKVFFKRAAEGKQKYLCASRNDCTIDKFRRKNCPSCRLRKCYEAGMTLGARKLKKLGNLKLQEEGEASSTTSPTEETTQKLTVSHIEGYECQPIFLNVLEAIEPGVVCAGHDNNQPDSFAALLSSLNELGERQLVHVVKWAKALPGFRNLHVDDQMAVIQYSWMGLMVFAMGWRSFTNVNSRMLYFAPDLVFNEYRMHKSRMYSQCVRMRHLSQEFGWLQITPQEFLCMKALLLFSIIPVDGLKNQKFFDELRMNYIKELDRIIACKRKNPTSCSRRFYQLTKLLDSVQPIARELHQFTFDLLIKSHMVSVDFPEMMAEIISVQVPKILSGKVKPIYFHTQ
# Sequence (P40337 whole entry, looked up): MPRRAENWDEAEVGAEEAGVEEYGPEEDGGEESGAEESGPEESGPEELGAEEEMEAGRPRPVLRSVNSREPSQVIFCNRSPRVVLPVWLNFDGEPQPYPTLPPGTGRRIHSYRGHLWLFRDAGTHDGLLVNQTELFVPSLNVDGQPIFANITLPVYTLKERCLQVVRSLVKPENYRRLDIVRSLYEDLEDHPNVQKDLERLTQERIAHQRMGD
# ASSAY_NOTES: Protac activity against VHL/AR in AR-positive human LNCAP cells assessed as induction of AR degradation at 0.1 uM incubated for 6 hrs by Western blot analysis relative to control
# Assay type: cell-based
Measured Activity, listed per entry for reference.
PARAMETER_MEASURED: Activity

substance_smiles=Cc1cc([C@H](C(=O)N2C[C@H](O)C[C@H]2C(=O)N[C@@H](CC(=O)N2CCC(N3CCC(C#Cc4ccc(C(=O)N[C@H]5C(C)(C)[C@H](Oc6ccc(C#N)c(Cl)c6)C5(C)C)cc4)CC3)CC2)c2ccc(C#N)cc2)C(C)C)on1 endpoint_result="> 95%"
substance_smiles=CC(=O)N[C@H](C(=O)N1C[C@H](O)C[C@H]1C(=O)N[C@@H](CC(=O)N1CCC(C#Cc2ccc(C(=O)N[C@H]3C(C)(C)[C@H](Oc4ccc(C#N)c(Cl)c4)C3(C)C)cc2)CC1)c1ccccc1)C(C)C endpoint_result="< 5%"
substance_smiles=C#Cc1ccc([C@H](CC(=O)N2CCC(C#Cc3ccc(C(=O)N[C@H]4C(C)(C)[C@H](Oc5ccc(C#N)c(Cl)c5)C4(C)C)cc3)CC2)NC(=O)[C@@H]2C[C@@H](O)CN2C(=O)[C@@H](c2cc(C)no2)C(C)C)cc1 endpoint_result="> 95%"
substance_smiles=CC(=O)N[C@H](C(=O)N1C[C@H](O)C[C@H]1C(=O)N[C@@H](CC(=O)N1CCC(N2CCC(C#Cc3ccc(C(=O)N[C@H]4C(C)(C)[C@H](Oc5ccc(C#N)c(Cl)c5)C4(C)C)cc3)CC2)CC1)c1ccccc1)C(C)C endpoint_result=11%
substance_smiles=Cc1cc([C@H](C(=O)N2C[C@H](O)C[C@H]2C(=O)N[C@@H](CC(=O)N2CCC(N3CCC(C#Cc4ccc(C(=O)N[C@H]5C(C)(C)[C@H](Oc6ccc(C#N)c(Cl)c6)C5(C)C)cc4)CC3)CC2)c2ccccc2)C(C)C)on1 endpoint_result=72%
substance_smiles=Cc1cc([C@H](C(=O)N2C[C@H](O)C[C@H]2C(=O)N[C@@H](CC(=O)N2CCC(C3CN(c4ccc(C(=O)N[C@H]5C(C)(C)[C@H](Oc6ccc(C#N)c(Cl)c6)C5(C)C)cc4)C3)CC2)c2ccccc2)C(C)C)on1 endpoint_result="> 95%"
substance_smiles=Cc1cc([C@H](C(=O)N2C[C@H](O)C[C@H]2C(=O)N[C@@H](CC(=O)N2CCC(C#Cc3ccc(C(=O)N[C@H]4C(C)(C)[C@H](Oc5ccc(C#N)c(Cl)c5)C4(C)C)cc3)CC2)c2ccc(F)cc2)C(C)C)on1 endpoint_result="> 95%"
substance_smiles=Cc1cc([C@H](C(=O)N2C[C@H](O)C[C@H]2C(=O)N[C@@H](CC(=O)N2CCC(N3CC(c4ccc(C(=O)N[C@H]5C(C)(C)[C@H](Oc6ccc(C#N)c(Cl)c6)C5(C)C)cc4)C3)CC2)c2ccccc2)C(C)C)on1 endpoint_result="> 95%"
substance_smiles=Cc1cc([C@H](C(=O)N2C[C@H](O)C[C@H]2C(=O)N[C@@H](CC(=O)N2CCC(C#Cc3ccc(C(=O)N[C@H]4C(C)(C)[C@H](Oc5ccc(C#N)c(Cl)c5)C4(C)C)cc3)CC2)c2ccc(Cl)cc2)C(C)C)on1 endpoint_result="> 95%"

Sourced from ChEMBL document CHEMBL4321866
